The compounds listed here are annotated with their IC50.
- SYSTEM_UNDER_TEST: human platelet integrin αIIbβ3 (Homo sapiens, UniProt P05106+P08514)
- TEST_DESCRIPTION: ELISA-like solid-phase binding assay, soluble integrin αIIbβ3 vs coated fibrinogen
- EXPERIMENTAL_CONTEXT: referenced to internal standard
Positions of bridges follow the written chain, without caps; N, C: chain ends. Non-standard residues stand in square brackets, D forms with d. Residues, ends and D or L forms follow the SMILES beside them. Groups on a side chain read outwards from the residue. dPhg = N[C@@H](C(=O)O)c1ccccc1; AEEA = NCCOCCOCC(=O)O; Mpa = O=C(O)CCS

[
  {
    "COMPOUND": "N=C(N)NCCC[C@@H]1NC(=O)[C@H](CS)NC(=O)[C@@H](Cc2ccccc2)NC(=O)[C@H](CC(=O)O)NC(=O)CNC1=O [c(RGDfC)] (cyclo(RGD[dF]C))",
    "IC50": "> 10 µM"
  },
  {
    "COMPOUND": "C[C@H](N)C(=O)N[C@H]1CSSC[C@@H](C(=O)NCC(=O)O)NC(=O)[C@H](Cc2ccccc2)NC(=O)[C@@H]2CSSC[C@H](NC(=O)[C@H](CC(=O)O)NC1=O)C(=O)N[C@@H](CCCNC(=N)N)C(=O)NCC(=O)N[C@@H](CC(=O)O)C(=O)N2 [RGD-4C] (H-ACDCRGDCFCG-OH; disulfide 2-10, 4-8)",
    "IC50": "> 10 µM"
  },
  {
    "COMPOUND": "N=C(N)NCCC[C@@H]1NC(=O)CNC(=O)C[C@@H](C(=O)O)NC(=O)[C@@H](c2ccccc2)NC(=O)[C@@H](CCCCNC(=O)COCCOCCNC(=O)CCS)NC1=O [c(phgisoDGRk)-Peg-MPA] (GR[dK]([AEEA-Mpa])[dPhg]D-OH; lactam N-5)",
    "IC50": "> 10 µM"
  },
  {
    "COMPOUND": "Cc1ccnc(NCCCC(=O)NCC(=O)NC(CC(=O)O)c2ccc(-c3cccc4ccccc34)cc2)c1 (stereo not drawn) [Mol11*]",
    "IC50": "> 10 µM"
  },
  {
    "COMPOUND": "N=C(N)NCCC[C@H](NC(=O)CN)C(=O)NCC(=O)N[C@@H](CC(=O)O)C(=O)O [GRGD] (H-GRGD-OH)",
    "IC50": "> 10 µM"
  },
  {
    "COMPOUND": "NCCCC[C@H](NC(=O)[C@@H]1CCCN1C(=O)[C@H](CO)NC(=O)[C@H](CC(=O)O)NC(=O)CNC(=O)[C@H](CCCN=C(N)N)NC(=O)CN)C(=O)O [GRGDSPK]",
    "IC50": "> 10 µM"
  }
]

----------
- SYSTEM_UNDER_TEST: human αvβ6-Integrin (Homo sapiens, UniProt P06756+P18564)
- Construct: purchased R&D
- Sequence (P06756 31-992 limits assumed): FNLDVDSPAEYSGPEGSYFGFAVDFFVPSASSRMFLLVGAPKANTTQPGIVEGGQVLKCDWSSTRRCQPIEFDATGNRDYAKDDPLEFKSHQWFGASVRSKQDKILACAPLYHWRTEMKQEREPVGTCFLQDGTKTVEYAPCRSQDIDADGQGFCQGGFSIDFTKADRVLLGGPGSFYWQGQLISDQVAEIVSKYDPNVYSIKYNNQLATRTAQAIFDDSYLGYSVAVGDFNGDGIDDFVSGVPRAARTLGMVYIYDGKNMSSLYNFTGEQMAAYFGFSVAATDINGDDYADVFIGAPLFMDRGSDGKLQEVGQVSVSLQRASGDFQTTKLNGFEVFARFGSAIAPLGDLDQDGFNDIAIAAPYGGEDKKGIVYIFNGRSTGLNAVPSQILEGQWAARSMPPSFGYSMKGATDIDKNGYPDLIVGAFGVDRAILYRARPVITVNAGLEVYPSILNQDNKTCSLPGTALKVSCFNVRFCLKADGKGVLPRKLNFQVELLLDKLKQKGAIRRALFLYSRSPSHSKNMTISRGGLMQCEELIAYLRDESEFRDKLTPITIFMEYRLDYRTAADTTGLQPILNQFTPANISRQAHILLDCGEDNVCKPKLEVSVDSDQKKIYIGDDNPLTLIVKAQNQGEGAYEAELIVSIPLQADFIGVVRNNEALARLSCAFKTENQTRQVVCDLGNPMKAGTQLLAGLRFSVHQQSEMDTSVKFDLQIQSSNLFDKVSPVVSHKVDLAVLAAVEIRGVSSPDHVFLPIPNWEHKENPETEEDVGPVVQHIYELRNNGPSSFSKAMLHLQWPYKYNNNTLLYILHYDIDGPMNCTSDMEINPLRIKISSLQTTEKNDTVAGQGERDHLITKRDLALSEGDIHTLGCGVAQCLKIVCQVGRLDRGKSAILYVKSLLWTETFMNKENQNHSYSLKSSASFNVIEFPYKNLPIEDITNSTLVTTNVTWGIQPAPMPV
- Sequence (P18564 22-707 limits assumed): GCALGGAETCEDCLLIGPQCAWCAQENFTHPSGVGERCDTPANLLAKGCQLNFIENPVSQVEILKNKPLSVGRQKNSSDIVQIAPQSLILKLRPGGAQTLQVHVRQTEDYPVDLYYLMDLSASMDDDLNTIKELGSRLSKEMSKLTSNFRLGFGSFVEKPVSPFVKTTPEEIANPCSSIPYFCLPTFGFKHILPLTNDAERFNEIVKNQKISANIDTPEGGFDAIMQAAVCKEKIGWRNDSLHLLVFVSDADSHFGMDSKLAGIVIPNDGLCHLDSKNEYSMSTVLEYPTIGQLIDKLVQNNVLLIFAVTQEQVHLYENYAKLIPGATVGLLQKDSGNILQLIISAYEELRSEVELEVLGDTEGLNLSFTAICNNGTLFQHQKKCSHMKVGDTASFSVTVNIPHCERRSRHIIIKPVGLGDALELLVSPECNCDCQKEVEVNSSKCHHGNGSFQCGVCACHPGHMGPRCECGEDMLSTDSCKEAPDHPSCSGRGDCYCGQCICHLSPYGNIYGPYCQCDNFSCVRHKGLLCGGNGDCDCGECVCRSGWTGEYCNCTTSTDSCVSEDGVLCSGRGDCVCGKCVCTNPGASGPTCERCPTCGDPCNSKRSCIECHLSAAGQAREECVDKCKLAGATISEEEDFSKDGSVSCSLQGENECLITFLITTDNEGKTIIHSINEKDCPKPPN
- TEST_DESCRIPTION: ELISA-like solid-phase binding assay, soluble integrin αvβ6 vs coated LAP (TGF-β)
- EXPERIMENTAL_CONTEXT: coated LAP, soluble integrin; referenced to internal standard
Positions of bridges follow the written chain, without caps; N, C: chain ends. Non-standard residues stand in square brackets, D forms with d. Residues, ends and D or L forms follow the SMILES beside them. Groups on a side chain read outwards from the residue. *: point of attachment. X2 = NC(=O)COCC(=O)NCCOCCOCCOCCN*; dPhg = N[C@@H](C(=O)O)c1ccccc1; AEEA = NCCOCCOCC(=O)O; Mpa = O=C(O)CCS
The compounds listed here are annotated with their IC50.
QUANTITY_NAME: IC50 (nM)

[
  {
    "COMPOUND": "N=C(N)NCCC[C@@H]1NC(=O)[C@H](CCCCNC(=O)CCOCCOCCOCCOCCOCCOCCNC(=O)CCS)NC(=O)[C@@H](Cc2ccccc2)NC(=O)[C@H](CC(=O)O)NC(=O)CNC1=O [c(RGDfK)-Peg-MPA]",
    "QUANTITY_NAME": "IC50",
    "RELATION_SIGN": "=",
    "DATA_VALUE": 422
  },
  {
    "COMPOUND": "N=C(N)NCCC[C@H](NC(=O)CN)C(=O)NCC(=O)N[C@@H](CC(=O)O)C(=O)O [GRGD] (H-GRGD-OH)",
    "QUANTITY_NAME": "IC50",
    "RELATION_SIGN": ">",
    "DATA_VALUE": 10000
  },
  {
    "COMPOUND": "N=C(N)c1ccc(N2CCN(C3CCN(CC(=O)O)CC3)CC2)cc1",
    "QUANTITY_NAME": "IC50",
    "RELATION_SIGN": ">",
    "DATA_VALUE": 10000
  },
  {
    "COMPOUND": "N=C(N)NCCC[C@H](NC(=O)CN)C(=O)NCC(=O)N[C@@H](CC(=O)O)C(=O)N[C@@H](CC(N)=O)C(=O)N1CCC[C@H]1C(=O)O [GRGDNP] (H-GRGDNP-OH)",
    "QUANTITY_NAME": "IC50",
    "RELATION_SIGN": ">",
    "DATA_VALUE": 10000
  },
  {
    "COMPOUND": "N=C(N)NCCC[C@@H]1NC(=O)[C@@H]2CSSC[C@H](NC(=O)[C@H](CC(=O)O)NC(=O)CNC1=O)C(=O)N[C@@H](Cc1ccccc1)C(=O)N[C@H](C(=O)NCCOCCOCCOCCNC(=O)COCC(N)=O)CSCC(=O)N[C@@H](CCCCN)C(=O)N2 [NC100717] ({CH2CO}-KCRGDCFC-X2; disulfide 2-6; thioether N-8; N-terminus and C-terminus assumed)",
    "QUANTITY_NAME": "IC50",
    "RELATION_SIGN": ">",
    "DATA_VALUE": 10000
  },
  {
    "COMPOUND": "C[C@@H](O)[C@H](NC(=O)[C@H](CC(=O)O)NC(=O)CNC(=O)[C@H](CCCNC(=N)N)NC(=O)CN)C(=O)N1CCC[C@H]1C(=O)O [GRGDTP] (H-GRGDTP-OH)",
    "QUANTITY_NAME": "IC50",
    "RELATION_SIGN": ">",
    "DATA_VALUE": 10000
  },
  {
    "COMPOUND": "N=C(N)NCCC[C@@H]1NC(=O)CNC(=O)C[C@@H](C(=O)O)NC(=O)[C@@H](c2ccccc2)NC(=O)[C@@H](CCCCN)NC1=O [c(phgisoDGRk)] (GR[dK][dPhg]D-OH; lactam N-5)",
    "QUANTITY_NAME": "IC50",
    "RELATION_SIGN": "=",
    "DATA_VALUE": 18
  },
  {
    "COMPOUND": "N=C(N)NCCC[C@@H]1NC(=O)[C@H](CS)NC(=O)[C@@H](Cc2ccccc2)NC(=O)[C@H](CC(=O)O)NC(=O)CNC1=O [c(RGDfC)] (cyclo(RGD[dF]C))",
    "QUANTITY_NAME": "IC50",
    "RELATION_SIGN": "=",
    "DATA_VALUE": 121
  },
  {
    "COMPOUND": "N=C(N)NCCC[C@@H]1NC(=O)CNC(=O)C[C@@H](C(=O)O)NC(=O)[C@@H](c2ccccc2)NC(=O)[C@@H](CCCCNC(=O)COCCOCCNC(=O)CCS)NC1=O [c(phgisoDGRk)-Peg-MPA] (GR[dK]([AEEA-Mpa])[dPhg]D-OH; lactam N-5)",
    "QUANTITY_NAME": "IC50",
    "RELATION_SIGN": "=",
    "DATA_VALUE": 52
  },
  {
    "COMPOUND": "NC(N)=NCCC[C@H](N)C(=O)NCC(=O)N[C@@H](CC(=O)O)C(=O)N[C@@H](CO)C(=O)O",
    "QUANTITY_NAME": "IC50",
    "RELATION_SIGN": ">",
    "DATA_VALUE": 10000
  }
]

----------
- SYSTEM_UNDER_TEST: human αvβ5-integrin (Homo sapiens, UniProt P06756+P18084)
- Sequence (P06756 31-1048): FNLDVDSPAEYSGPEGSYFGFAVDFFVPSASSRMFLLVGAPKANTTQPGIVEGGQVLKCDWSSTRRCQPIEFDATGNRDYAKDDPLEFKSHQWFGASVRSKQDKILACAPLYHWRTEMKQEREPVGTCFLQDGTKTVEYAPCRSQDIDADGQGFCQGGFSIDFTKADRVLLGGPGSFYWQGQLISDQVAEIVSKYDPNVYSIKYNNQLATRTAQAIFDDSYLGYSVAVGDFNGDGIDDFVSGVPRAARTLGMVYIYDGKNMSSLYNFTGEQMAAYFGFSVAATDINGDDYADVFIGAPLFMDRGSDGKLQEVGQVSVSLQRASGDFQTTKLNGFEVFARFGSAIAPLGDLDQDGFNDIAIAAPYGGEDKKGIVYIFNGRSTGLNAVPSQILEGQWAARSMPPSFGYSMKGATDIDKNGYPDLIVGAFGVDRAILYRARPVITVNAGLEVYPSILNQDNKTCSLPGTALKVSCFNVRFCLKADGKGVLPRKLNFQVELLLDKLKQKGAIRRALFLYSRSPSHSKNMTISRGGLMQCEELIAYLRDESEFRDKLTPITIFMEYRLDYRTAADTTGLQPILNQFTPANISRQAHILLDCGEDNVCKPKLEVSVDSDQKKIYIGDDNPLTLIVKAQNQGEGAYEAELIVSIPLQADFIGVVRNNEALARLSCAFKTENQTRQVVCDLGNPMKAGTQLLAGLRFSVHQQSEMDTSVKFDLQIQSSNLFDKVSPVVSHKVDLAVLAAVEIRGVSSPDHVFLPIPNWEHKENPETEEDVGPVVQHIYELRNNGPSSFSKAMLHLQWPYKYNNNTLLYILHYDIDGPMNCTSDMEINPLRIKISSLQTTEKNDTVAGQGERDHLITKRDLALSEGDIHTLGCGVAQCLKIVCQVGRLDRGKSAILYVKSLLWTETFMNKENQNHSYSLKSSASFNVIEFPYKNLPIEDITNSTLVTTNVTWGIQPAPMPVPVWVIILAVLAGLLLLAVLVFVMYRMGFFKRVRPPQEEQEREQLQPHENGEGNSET
- Sequence (P18084 24-799): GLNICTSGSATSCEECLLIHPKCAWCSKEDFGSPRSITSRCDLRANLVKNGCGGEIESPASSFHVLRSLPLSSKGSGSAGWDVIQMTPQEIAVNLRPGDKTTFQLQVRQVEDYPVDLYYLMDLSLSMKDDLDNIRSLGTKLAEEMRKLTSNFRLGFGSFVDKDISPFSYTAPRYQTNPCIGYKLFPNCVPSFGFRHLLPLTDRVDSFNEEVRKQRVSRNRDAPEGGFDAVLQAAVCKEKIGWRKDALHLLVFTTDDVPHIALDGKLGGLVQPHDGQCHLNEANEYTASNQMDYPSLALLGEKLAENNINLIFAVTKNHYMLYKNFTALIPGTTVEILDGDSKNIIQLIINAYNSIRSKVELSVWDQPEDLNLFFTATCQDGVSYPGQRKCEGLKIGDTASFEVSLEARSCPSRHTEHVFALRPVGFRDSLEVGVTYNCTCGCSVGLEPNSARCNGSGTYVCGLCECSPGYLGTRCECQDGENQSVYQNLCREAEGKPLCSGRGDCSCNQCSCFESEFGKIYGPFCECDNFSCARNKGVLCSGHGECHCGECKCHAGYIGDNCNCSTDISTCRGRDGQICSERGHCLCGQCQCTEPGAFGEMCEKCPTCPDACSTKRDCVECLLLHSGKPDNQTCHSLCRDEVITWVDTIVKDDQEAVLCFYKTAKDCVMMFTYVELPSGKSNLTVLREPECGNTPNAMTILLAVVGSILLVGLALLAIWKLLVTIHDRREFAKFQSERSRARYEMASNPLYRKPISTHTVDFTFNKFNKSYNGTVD
- TEST_DESCRIPTION: ELISA-like solid-phase binding assay, soluble integrin αvβ5 vs coated vitronectin
- EXPERIMENTAL_CONTEXT: referenced to internal standard
Positions of bridges follow the written chain, without caps; N, C: chain ends. Non-standard residues stand in square brackets, D forms with d. Residues, ends and D or L forms follow the SMILES beside them. Groups on a side chain read outwards from the residue. dPhg = N[C@@H](C(=O)O)c1ccccc1; AEEA = NCCOCCOCC(=O)O; Mpa = O=C(O)CCS

[
  {
    "COMPOUND": "CCCCS(=O)(=O)N[C@@H](Cc1ccc(OCCCCC2CCNCC2)cc1)C(=O)O",
    "UNIT_INFO": "nM",
    "RELATION_SIGN": ">",
    "IC50": 10000
  },
  {
    "COMPOUND": "N=C(N)NCCC[C@@H]1NC(=O)CNC(=O)C[C@@H](C(=O)O)NC(=O)[C@@H](c2ccccc2)NC(=O)[C@@H](CCCCNC(=O)COCCOCCNC(=O)CCS)NC1=O [c(phgisoDGRk)-Peg-MPA] (GR[dK]([AEEA-Mpa])[dPhg]D-OH; lactam N-5)",
    "UNIT_INFO": "nM",
    "RELATION_SIGN": ">",
    "IC50": 10000
  },
  {
    "COMPOUND": "CC(C)C[C@H](NC(=O)[C@H](CO)NC(=O)[C@H](CC(=O)O)NC(=O)[C@H](CC(C)C)NC(=O)[C@H](CC(=O)O)NC(=O)[C@@H](NC(=O)[C@@H](N)CCCNC(=N)N)[C@@H](C)O)C(=O)N[C@@H](CCCNC(=N)N)C(=O)N[C@H](C(=O)O)[C@@H](C)O",
    "UNIT_INFO": "nM",
    "RELATION_SIGN": ">",
    "IC50": 10000
  },
  {
    "COMPOUND": "CC(=O)N1CCC[C@H]1C(=O)N[C@@H](Cc1c[nH]cn1)C(=O)N[C@@H](CO)C(=O)N[C@@H](CS)C(=O)N[C@@H](CC(N)=O)C(N)=O [ATN161, Ac-PHSCN-NH2] (Ac-PHSCN-NH2)",
    "UNIT_INFO": "nM",
    "RELATION_SIGN": ">",
    "IC50": 10000
  },
  {
    "COMPOUND": "N=C(N)c1ccc(N2CCN(C3CCN(CC(=O)O)CC3)CC2)cc1",
    "UNIT_INFO": "nM",
    "RELATION_SIGN": ">",
    "IC50": 10000
  },
  {
    "COMPOUND": "N=C(N)NCCC[C@@H]1NC(=O)[C@H](CCCCNC(=O)CCOCCOCCOCCOCCOCCOCCNC(=O)CCS)NC(=O)[C@@H](Cc2ccccc2)NC(=O)[C@H](CC(=O)O)NC(=O)CNC1=O [c(RGDfK)-Peg-MPA]",
    "UNIT_INFO": "nM",
    "RELATION_SIGN": "=",
    "IC50": 390
  },
  {
    "COMPOUND": "C[C@H](N)C(=O)N[C@H]1CSSC[C@@H](C(=O)NCC(=O)O)NC(=O)[C@H](Cc2ccccc2)NC(=O)[C@@H]2CSSC[C@H](NC(=O)[C@H](CC(=O)O)NC1=O)C(=O)N[C@@H](CCCNC(=N)N)C(=O)NCC(=O)N[C@@H](CC(=O)O)C(=O)N2 [RGD-4C] (H-ACDCRGDCFCG-OH; disulfide 2-10, 4-8)",
    "UNIT_INFO": "nM",
    "RELATION_SIGN": "=",
    "IC50": 46
  },
  {
    "COMPOUND": "N=C(N)NCCC[C@@H]1NC(=O)CNC(=O)C[C@@H](C(=O)O)NC(=O)[C@@H](c2ccccc2)NC(=O)[C@@H](CCCCN)NC1=O [c(phgisoDGRk)] (GR[dK][dPhg]D-OH; lactam N-5)",
    "UNIT_INFO": "nM",
    "RELATION_SIGN": ">",
    "IC50": 10000
  },
  {
    "COMPOUND": "N=C(N)NCCC[C@@H]1NC(=O)[C@H](CS)NC(=O)[C@@H](Cc2ccccc2)NC(=O)[C@H](CC(=O)O)NC(=O)CNC1=O [c(RGDfC)] (cyclo(RGD[dF]C))",
    "UNIT_INFO": "nM",
    "RELATION_SIGN": "=",
    "IC50": 433
  },
  {
    "COMPOUND": "NCCCC[C@H](NC(=O)[C@@H]1CCCN1C(=O)[C@H](CO)NC(=O)[C@H](CC(=O)O)NC(=O)CNC(=O)[C@H](CCCN=C(N)N)NC(=O)CN)C(=O)O",
    "UNIT_INFO": "nM",
    "RELATION_SIGN": "=",
    "IC50": 201
  },
  {
    "COMPOUND": "N=C(N)NCCC[C@H](N)C(=O)NCC(=O)N[C@@H](CC(=O)O)C(=O)O",
    "UNIT_INFO": "nM",
    "RELATION_SIGN": "=",
    "IC50": 440
  }
]
